Biological target: PKN2 (human) (UniProt Q16513)
Sequence (Q16513 whole entry, looked up): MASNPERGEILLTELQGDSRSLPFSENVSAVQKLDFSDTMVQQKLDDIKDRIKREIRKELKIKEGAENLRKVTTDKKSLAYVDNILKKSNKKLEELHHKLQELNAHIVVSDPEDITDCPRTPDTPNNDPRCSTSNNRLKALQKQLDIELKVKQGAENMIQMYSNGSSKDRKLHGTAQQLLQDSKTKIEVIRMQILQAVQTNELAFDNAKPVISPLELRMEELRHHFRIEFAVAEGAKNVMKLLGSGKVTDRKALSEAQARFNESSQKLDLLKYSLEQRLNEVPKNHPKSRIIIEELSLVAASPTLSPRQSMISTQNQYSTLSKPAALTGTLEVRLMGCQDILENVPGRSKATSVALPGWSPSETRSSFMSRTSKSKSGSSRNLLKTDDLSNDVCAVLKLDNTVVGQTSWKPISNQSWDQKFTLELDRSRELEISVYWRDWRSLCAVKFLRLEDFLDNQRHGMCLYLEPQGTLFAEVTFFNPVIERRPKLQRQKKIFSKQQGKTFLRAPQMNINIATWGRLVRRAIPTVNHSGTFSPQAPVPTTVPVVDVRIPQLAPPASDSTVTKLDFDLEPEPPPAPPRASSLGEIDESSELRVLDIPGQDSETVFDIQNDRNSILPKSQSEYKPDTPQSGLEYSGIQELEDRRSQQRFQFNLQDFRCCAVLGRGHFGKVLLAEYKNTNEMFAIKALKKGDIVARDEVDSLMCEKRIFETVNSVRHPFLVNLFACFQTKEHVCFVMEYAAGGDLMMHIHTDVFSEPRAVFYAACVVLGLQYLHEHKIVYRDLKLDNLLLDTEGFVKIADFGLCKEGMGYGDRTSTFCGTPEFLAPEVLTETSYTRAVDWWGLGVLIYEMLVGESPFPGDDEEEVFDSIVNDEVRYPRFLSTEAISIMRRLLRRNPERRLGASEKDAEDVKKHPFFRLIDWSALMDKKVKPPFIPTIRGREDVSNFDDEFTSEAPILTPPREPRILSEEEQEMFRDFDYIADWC
Assay: radiometric filter-binding kinase assay
Conditions: compound 0.1 µM
observation type: residual activity (%)
Give the value, in units of %, as a plain number.

[
  {
    "compound": "CC1=C(CO)C(=O)O[C@@H]([C@@H](C)[C@H]2CC[C@H]3[C@@H]4C[C@H]5O[C@]56[C@@H](O)C=CC(=O)[C@]6(C)C4CC[C@]23C)C1 (stereo not given in full)",
    "tgt": "PKN2 (human) (UniProt Q16513)",
    "display unit": "%",
    "residual activity": 103
  },
  {
    "compound": "CCn1c(-c2nonc2N)nc2cncc(CNC3CCNCC3)c21",
    "tgt": "PKN2 (human) (UniProt Q16513)",
    "display unit": "%",
    "residual activity": 31
  },
  {
    "compound": "C/C(=C1/C(=O)Nc2ccc(NC(N)=O)cc21)c1ccc[nH]1",
    "tgt": "PKN2 (human) (UniProt Q16513)",
    "display unit": "%",
    "residual activity": 36
  },
  {
    "compound": "Cc1ccc(-c2ccc3c(ccc4sc5c(c43)NC[C@@H](C)NC5=O)n2)cn1",
    "tgt": "PKN2 (human) (UniProt Q16513)",
    "display unit": "%",
    "residual activity": 108
  },
  {
    "compound": "CN1CCN(CCOc2cc(OC3CCOCC3)c3c(Nc4c(Cl)ccc5c4OCO5)ncnc3c2)CC1",
    "tgt": "PKN2 (human) (UniProt Q16513)",
    "display unit": "%",
    "residual activity": 103
  },
  {
    "compound": "Cn1c(=O)c2c(ncn2C)n(C)c1=O",
    "tgt": "PKN2 (human) (UniProt Q16513)",
    "display unit": "%",
    "residual activity": 89
  },
  {
    "compound": "C=CC(=O)N1CCC[C@@H](n2nc(-c3ccc(Oc4ccccc4)cc3)c3c(N)ncnc32)C1",
    "tgt": "PKN2 (human) (UniProt Q16513)",
    "display unit": "%",
    "residual activity": 109
  },
  {
    "compound": "CCCCCc1ccc(/C=C/[C@H](O)[C@@H](CO)NC)cc1",
    "tgt": "PKN2 (human) (UniProt Q16513)",
    "display unit": "%",
    "residual activity": 78
  }
]

Kindly review the next compound as well.
Sample CNC(=O)C1[C@H]2O[C@@](C)([C@@H]1N)n1c3ccccc3c3c4c(c5c6ccccc6n2c5c31)C(=O)NC4 (stereo not given in full) — what was its residual activity?
8

====

Molecular target: MELK (human)
Assay: radiometric filter-binding kinase assay
Details: compound 10.0 µM
observation type: residual activity
A complete answer gives the number followed by the unit.

Previously resolved entries follow.
[
  {
    "compound": "COc1cc2ncn(-c3cc(OCc4ccccc4S(C)(=O)=O)c(C#N)s3)c2cc1OC",
    "tgt": "MELK (human)",
    "test result": "59%"
  },
  {
    "compound": "CC(C)(C#N)c1ccc(N2C(=O)OCc3cnc4ccc(-c5cnc6ccccc6c5)cc4c32)cc1",
    "tgt": "MELK (human)",
    "test result": "49%"
  },
  {
    "compound": "Nc1cccc2c1CN(C1CCC(=O)NC1=O)C2=O (stereo not given)",
    "tgt": "MELK (human)",
    "test result": "90%"
  },
  {
    "compound": "NC1(c2ccc(-c3nc4ccn5c(=O)[nH]nc5c4cc3-c3ccccc3)cc2)CCC1",
    "tgt": "MELK (human)",
    "test result": "80%"
  },
  {
    "compound": "CC(C)C[C@H](NC(=O)CNC(=O)c1cc(Cl)ccc1Cl)B1OC(=O)CC(CC(=O)O)(C(=O)O)O1 (stereo not given in full)",
    "tgt": "MELK (human)",
    "test result": "80%"
  }
]

Sample COc1ccc2c(c1)c1c3c(c4c5ccccc5n(C)c4c1n2CC(O)CN(C)C)C(=O)NC3=O (stereo not given) — what was its residual activity?
8%

Sample CCCC(CCC)C(=O)O — what was its residual activity?
97%

Sample CN1C(=O)[C@@H](Cc2c[nH]c3ccccc23)NC1=S — what was its residual activity?
89%

Sample NC(=O)Nc1ccc2c(c1)/C(=C/c1cc(-c3cccnc3)c[nH]1)C(=O)N2 — what was its residual activity?
0%

Sample CCn1c(-c2nonc2N)nc2cncc(CNC3CCNCC3)c21 — what was its residual activity?
26%

Sample CCOC(=O)c1ccc(N2NC(=O)/C(=C/c3ccc([N+](=O)[O-])o3)C2=O)cc1 — what was its residual activity?
82%

Sample O=C(NOC[C@H](O)CO)c1ccc(F)c(F)c1Nc1ccc(I)cc1Cl — what was its residual activity?
97%

Sample CNc1nc(-c2ccc3c(N)n[nH]c3c2)cc(N2C[C@@H](C(=O)NC3CCCCC3)CC[C@H]2C)n1 — what was its residual activity?
22%

Sample CC1=C(CO)C(=O)O[C@@H]([C@@H](C)[C@H]2CC[C@H]3[C@@H]4C[C@H]5O[C@]56[C@@H](O)C=CC(=O)[C@]6(C)C4CC[C@]23C)C1 (stereo not given in full) — what was its residual activity?
123%
